experimental.system: Neuraminidase (Influenza A virus, UniProt B4URF0)
Sequence (B4URF0 whole entry): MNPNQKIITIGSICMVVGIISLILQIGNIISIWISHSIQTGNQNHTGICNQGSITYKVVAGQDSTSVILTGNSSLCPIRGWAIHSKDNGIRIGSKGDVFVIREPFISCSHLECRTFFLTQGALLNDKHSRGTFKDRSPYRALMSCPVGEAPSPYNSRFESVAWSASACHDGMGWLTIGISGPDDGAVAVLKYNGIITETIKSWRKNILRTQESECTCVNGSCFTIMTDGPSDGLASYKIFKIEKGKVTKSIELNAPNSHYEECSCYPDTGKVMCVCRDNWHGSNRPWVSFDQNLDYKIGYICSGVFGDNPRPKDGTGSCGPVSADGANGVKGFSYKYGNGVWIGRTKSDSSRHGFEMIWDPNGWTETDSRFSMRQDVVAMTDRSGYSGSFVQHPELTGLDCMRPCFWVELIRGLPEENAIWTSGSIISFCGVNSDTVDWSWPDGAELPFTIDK
Set-up: species or system (A/chicken/Shandong/LY/2008(H9N2))
reported.endpoint: IC50 (µM)

>>> observed("CC(C)C[C@H](N)C(=O)Nc1cc(NC(=O)/C=C/c2ccco2)ccc1O.Cl")
179
>>> observed("CC[C@H](C)[C@H](N)C(=O)Nc1cc(NC(=O)/C=C/c2ccc(O)c(O)c2)ccc1O.Cl")
0.0017
>>> observed("CC(C)[C@H](N)C(=O)Nc1cc(NC(=O)/C=C/c2ccco2)ccc1O.Cl")
165
>>> observed("Cl.NCCCC[C@H](N)C(=O)Nc1cc(NC(=O)/C=C/c2ccco2)ccc1O")
215
>>> observed("Cl.NCCC(=O)Nc1cc(NC(=O)/C=C/c2ccco2)ccc1O")
118
>>> observed("C[C@@H](O)[C@H](N)C(=O)Nc1cc(NC(=O)/C=C/c2ccco2)ccc1O.Cl")
200

* * *

experimental.system: UniProt:B4URF0
Parameters: species or system (A/chicken/Shandong/LY/2008(H9N2))
pIC50: −log10 of the molar value.
pIC50 values by entry
reported.endpoint: pIC50

>>> observed("C[C@H](N)C(=O)Nc1cc(NC(=O)/C=C/c2ccco2)ccc1O.Cl")
4.04
>>> observed("Cl.N=C(NCCC[C@H](N)C(=O)Nc1cc(NC(=O)/C=C/c2ccco2)ccc1O)N[N+](=O)[O-]")
3.71
>>> observed("Cl.O=C(/C=C/c1ccco1)Nc1ccc(O)c(NC(=O)[C@@H]2CCCN2)c1")
4.07
>>> observed("Cl.NCC(=O)Nc1cc(NC(=O)/C=C/c2ccco2)ccc1O")
3.76
>>> observed("C[C@H](N)C(=O)Nc1cc(NC(=O)/C=C/c2ccc(O)c(O)c2)ccc1O.Cl")
3.98

* * *

experimental.system: Neuraminidase (Influenza A virus)
Design: species or system (A/chicken/Shandong/LY/2008(H9N2))
reported.endpoint: IC50 (µM)

>>> observed("Cl.NCCCC(=O)Nc1cc(NC(=O)/C=C/c2ccco2)ccc1O")
167
>>> observed("CC[C@H](C)[C@H](N)C(=O)Nc1cc(NC(=O)/C=C/c2ccco2)ccc1O.Cl")
119
>>> observed("CSCC[C@H](N)C(=O)Nc1cc(NC(=O)/C=C/c2ccco2)ccc1O.Cl")
144
>>> observed("Cl.O=C(/C=C/c1ccco1)Nc1ccc(O)c(NC(=O)[C@@H]2C[C@@H](O)CN2)c1")
111
>>> observed("CC(C)[C@H](N)C(=O)Nc1cc(NC(=O)/C=C/c2ccc(O)c(O)c2)ccc1O.Cl")
138
>>> observed("CC(C)C[C@H](N)C(=O)Nc1cc(NC(=O)/C=C/c2ccc(O)c(O)c2)ccc1O.Cl")
154
>>> observed("Cl.N[C@@H](Cc1ccccc1)C(=O)Nc1cc(NC(=O)/C=C/c2ccco2)ccc1O")
143
>>> observed("Cl.N[C@@H](CO)C(=O)Nc1cc(NC(=O)/C=C/c2ccco2)ccc1O")
158
>>> observed("Cl.N[C@@H](Cc1c[nH]c2ccccc12)C(=O)Nc1cc(NC(=O)/C=C/c2ccco2)ccc1O")
194
